Biological target: Rac GTPase-activating protein 1 (Homo sapiens) (UniProt Q9H0H5)
Sequence (Q9H0H5 whole entry, looked up): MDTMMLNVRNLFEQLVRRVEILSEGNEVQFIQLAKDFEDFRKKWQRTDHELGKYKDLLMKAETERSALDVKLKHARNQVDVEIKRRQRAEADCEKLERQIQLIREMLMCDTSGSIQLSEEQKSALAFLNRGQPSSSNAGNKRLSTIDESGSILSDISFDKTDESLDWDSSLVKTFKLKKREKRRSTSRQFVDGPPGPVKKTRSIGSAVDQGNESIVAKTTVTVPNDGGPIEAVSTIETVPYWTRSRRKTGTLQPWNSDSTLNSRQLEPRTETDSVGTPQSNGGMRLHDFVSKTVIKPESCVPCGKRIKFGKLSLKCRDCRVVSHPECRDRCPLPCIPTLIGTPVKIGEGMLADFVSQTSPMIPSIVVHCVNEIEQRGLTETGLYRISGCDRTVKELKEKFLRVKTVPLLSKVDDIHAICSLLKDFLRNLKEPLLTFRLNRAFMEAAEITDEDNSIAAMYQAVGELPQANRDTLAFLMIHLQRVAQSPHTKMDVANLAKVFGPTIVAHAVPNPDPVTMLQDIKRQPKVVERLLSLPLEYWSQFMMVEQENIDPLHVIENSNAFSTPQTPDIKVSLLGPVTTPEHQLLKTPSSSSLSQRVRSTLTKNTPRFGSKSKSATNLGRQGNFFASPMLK
Assay: blockers of MgcRacGAP-driven Rac1 GTP hydrolysis – biochemical, ADP Hunter fluorescence, primary and confirmatory, confirmation (AID 624330);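 also: fluorescence reports GDP produced by GAP-driven GTP hydrolysis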
Details: MgcRacGAP-stimulated Rac1 GTP hydrolysis, at 30 µM, active compounds read high, GST-tagged Rac1 F28L mutant substrate
About 2,100 (0.62%) of roughly 340,000 compounds were called active. These entries were drawn from the full list. Measured potencies and affinities stand elsewhere.
PROPERTY MEASURED: inhibition (%)
Numbers only, in %.

INSERT INTO results (molecule, target_of_assay, observed_result) VALUES
  ('O=C(O)CCC(=O)Nc1cccc(-c2nc3ccccc3o2)c1', 'Rac GTPase-activating protein 1 (Homo sapiens) (UniProt Q9H0H5)', -9.77);

// for each molecule in input: emit inhibition
1. Cc1ccc(N=Cc2cccc(O)c2O)c(C)c1
2. c1cncc(-c2nc3ccccc3[nH]2)c1

Return:
27.7
3.11

// for each molecule in input: emit inhibition
1. O=C1OCCC1=COCCCCCOC=C1CCOC1=O
2. Cc1ccc(SCC(=O)n2nc(C)cc2C)cc1
3. O=[N+]([O-])c1ccc2nc(C3CCCCC3)[nH]c2c1
4. CCC(C)[C@H](NC(=O)OC(C)(C)C)C(=O)N/N=C/c1ccc2cc(OC)ccc2n1 (some centres undefined)

Return:
[3.03, 3.7, 6.17, 7.33]

// for each molecule in input: emit inhibition
1. O=[N+]([O-])c1ccc2nc(-c3ccc(Cl)cc3)[nH]c2c1
2. CCC(CC)CN1CCC(CN2CCNC(=O)C2=O)CC1
3. CC(C)CCN1CCN(C/C=C/c2ccco2)CC1CCO (centres undefined)
4. COc1ccccc1/C=C/CN1CCN(Cc2ccc(C)o2)C(CCO)C1 (centres undefined)

Return:
9.26
0.28
14.2
11

// for each molecule in input: emit inhibition
1. COc1cc(OC)cc(N(C(=O)c2ccco2)C(C(=O)NC2CCCC2)c2ccc(N3CCOCC3)cc2)c1 (centres undefined)
2. CCN(CC)C(=O)[C@H]1CC(CC(=O)NC(C)(C)C)C(=O)N2CCc3c([nH]c4ccccc34)[C@]12C (some centres undefined)
3. Fc1ccccc1/C=N/N1CCN(Cc2ccccc2Cl)CC1
4. CCOC(=O)C1CCN(C(=O)Cn2nc(C)n3nc(-c4ccc(OC)cc4)cc3c2=O)CC1
5. CC1=C(SCc2ccccc2)C(=O)c2ccccc2C1=O
6. CCC(CNC(=O)c1c(C)nn(-c2ccccc2)c1Cl)c1ccccc1 (centres undefined)
7. O=C(COC(=O)c1ccc(O)cc1O)Nc1cccc2ccccc12
8. Oc1ccc(Cl)cc1C=Nc1ccc(Br)cc1

Return:
1. 3.31
2. 6.38
3. -7.94
4. 4.91
5. -10.4
6. -0.7
7. 4.44
8. 7.16

====

Target: Rac GTPase-activating protein 1 (Homo sapiens) (UniProt Q9H0H5)
Test: blockers of MgcRacGAP-driven Rac1 GTP hydrolysis – biochemical, ADP Hunter fluorescence, primary and confirmatory, confirmation (AID 624330);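 also: fluorescence reports GDP produced by GAP-driven GTP hydrolysis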
Conditions: MgcRacGAP-stimulated Rac1 GTP hydrolysis, at 30 µM, active compounds read high, GST-tagged Rac1 F28L mutant substrate
In all, about 340,000 compounds went through this assay and about 2,100 (0.62%) were called active. Only a sample is shown. Potency and affinity values are given separately.
PROPERTY MEASURED: inhibition (%)
Give bare numbers, in %.

Sample answers from the record:
INSERT INTO results (compound, target_of_assay, observed_result) VALUES
  ('O=C(c1cc(COc2ccc(F)c(F)c2)on1)N1CCN(C/C=C/c2ccccc2)CC1', 'Rac GTPase-activating protein 1 (Homo sapiens) (UniProt Q9H0H5)', -6.39),
  ('CCc1nn2c(=O)cc(CSCC(=O)Nc3ccccc3Cl)nc2s1', 'Rac GTPase-activating protein 1 (Homo sapiens) (UniProt Q9H0H5)', 10.2),
  ('COc1ccc(CCN(C)CC(O)COc2ccc(C(C)=O)cc2OC)cc1OC (configuration not stated)', 'Rac GTPase-activating protein 1 (Homo sapiens) (UniProt Q9H0H5)', 16.6),
  ('COC(=O)/C(=C\c1ccc([N+](=O)[O-])cc1)NC(=O)c1ccccc1', 'Rac GTPase-activating protein 1 (Homo sapiens) (UniProt Q9H0H5)', -0.53);

// for each compound in input: emit inhibition
1. CCOc1ccc(/C=N/Nc2nc(=O)[nH]nc2C)cc1OC
2. CCOC(=O)N1CCN(CC(=O)Nc2nc3ccccc3s2)CC1
3. COc1cc2[nH]c(C(=O)N3CCC(Cc4ccccc4)CC3)cc2c(OC)c1OC
4. Cc1cc(C)c(C)c(OCCCN(C)C)c1
5. CCOc1cc(/C=N\Nc2nc(-c3ccc(C)cc3)c(NC(C)=O)s2)ccc1O

Return:
7.43
-4.03
4.96
17
8.08

// for each compound in input: emit inhibition
1. CCC(=O)NC(=S)Nc1ccc(S(=O)(=O)NC(C)C)cc1
2. COc1ccc2nc(NC(=O)CN3CCN(C)CC3)sc2c1
3. Cc1cc(C(=O)NCc2ccc(F)cc2)n(-c2ccccc2)n1

Return:
[-11.4, 14.5, 12.3]

// for each compound in input: emit inhibition
1. CCOc1cc(/C=N/Nc2cc(C)nc(-n3nc(C)cc3C)n2)ccc1O
2. CCOC(=O)C1CCN(Cc2coc3c(Cl)cc(Cl)cc3c2=O)CC1
3. Cc1ccc(S(=O)(=O)N2CCCCC2)cc1NC(=O)C1=NN(c2ccccc2)C(=O)CC1
4. Cc1csc(=O)n1CCC(=O)OCC(=O)Nc1ccc(S(N)(=O)=O)cc1
5. Cc1ccc2nc(C)cc(C(=O)OCC(=O)Nc3cccnc3Cl)c2c1
6. CSc1nc(C(=O)N2CCc3c([nH]c4ccccc34)C2c2ccccn2)cs1 (configuration not stated)
7. O=C(CN1CCN(Cc2ccccc2)CC1)Nc1nc2ccccc2s1

Return:
11.4
14.9
4.16
6.26
5.5
3.69
14

====

Target: Rac GTPase-activating protein 1 (Homo sapiens) (UniProt Q9H0H5)
Test: blockers of MgcRacGAP-driven Rac1 GTP hydrolysis – biochemical, ADP Hunter fluorescence, primary and confirmatory, confirmation (AID 624330);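 also: fluorescence reports GDP produced by GAP-driven GTP hydrolysis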
Conditions: MgcRacGAP-stimulated Rac1 GTP hydrolysis, at 30 µM, active compounds read high, GST-tagged Rac1 F28L mutant substrate
Screen size: about 340,000 compounds; about 2,100 (0.62%) were called active. The list is a sample of the results. Measured potencies and affinities stand elsewhere.
PROPERTY MEASURED: inhibition (%)
Give bare numbers, in %.

INSERT INTO assay_data (compound, property_measured, observed_result) VALUES
  ('O=C(c1ccc(F)cc1)N1CCCC(N2CCN(Cc3ccc4c(c3)OCO4)CC2)C1 (stereo unspecified)', 'inhibition', 8.04);

// for each compound in input: emit inhibition
1. COc1ccc(N2C(=O)/C(=C/c3cccs3)NC2=S)cc1
2. CCN1C(=O)/C(=C\N(C)C)NC1=S
3. O=C(N/N=C/c1cccc(O)c1)C(=O)N1CCCCCC1
4. O=C(NCC1CCCO1)C(=O)N/N=C/c1ccc(O)c(Cl)c1 (stereo unspecified)
5. CN1C(=O)/C(=C/C=C2\SCCN2C)OC1=S
6. CCOc1ccccc1N1CCN(Cc2ccco2)CC1

Return:
9.24
12
0.3
26.7
8.62
14.9

====

Target: Rac GTPase-activating protein 1 (Homo sapiens) (UniProt Q9H0H5)
Experiment: blockers of MgcRacGAP-driven Rac1 GTP hydrolysis – biochemical, ADP Hunter fluorescence, primary and confirmatory, confirmation (AID 624330);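 also: fluorescence reports GDP produced by GAP-driven GTP hydrolysis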
Conditions: MgcRacGAP-stimulated Rac1 GTP hydrolysis, at 30 µM, active compounds read high, GST-tagged Rac1 F28L mutant substrate
The whole screen tested about 340,000 compounds, of which about 2,100 (0.62%) were called active. The list is a sample of the results. Entries with a potency or affinity are not part of this list.
PROPERTY MEASURED: inhibition (%)
Numbers only, in %.

INSERT INTO measurements (molecule, observed_result) VALUES
  ('COc1ccc(C2C(=O)NN=C2C)cc1 (configuration not stated)', 22.1);

// for each molecule in input: emit inhibition
1. CN(C)c1ccc(C(=O)NCC2CCCO2)cc1 (configuration not stated)
2. FC(F)(F)c1cnc2c(-c3ccc(Cl)cc3Cl)noc2c1
3. O=c1[nH]c(/C=C\c2cccc(O)c2)nc(O)c1[N+](=O)[O-]
4. CCC(C)N(C(=O)COC(=O)c1ccc(=O)n(Cc2ccccc2)n1)C1CCS(=O)(=O)C1 (configuration not stated)
5. CCN(CCNCC(O)COCc1ccc(Cl)cc1)c1cccc(C)c1 (configuration not stated)
6. COc1ccc(C)cc1NC(=O)CNCc1cccs1
7. O=C(NCc1cccnc1)C1CCN(S(=O)(=O)c2cccs2)CC1
8. COc1ccc(N2CC(C(=O)NNC(=O)c3ccc(Br)cc3)CC2=O)c(OC)c1 (configuration not stated)

Return:
1. -9.43
2. 10.7
3. 13.1
4. 2.85
5. 31.7
6. 0.81
7. 8.85
8. 5.62

// for each molecule in input: emit inhibition
1. O=C(O)c1ccc(NCc2ccc3c(c2)OCO3)cc1
2. Cc1ccc(-c2csc3ncnc(N4CCN(Cc5ccccc5)CC4)c23)cc1
3. O=C(CNC(=O)c1ccco1)Nc1ccc(N2CCCCCC2)cc1
4. Cc1ccccc1-n1nc(C(=O)O)cc1-c1ccccc1
5. O=[N+]([O-])c1ccccc1NS(=O)(=O)c1ccccc1
6. COc1ccc(NC(=O)Cc2cccs2)c(OC)c1

Return:
[7.49, 4.03, 30.4, 3.4, 0.32, 8.99]

// for each molecule in input: emit inhibition
1. O=c1[nH]c(SCc2ccccc2)nc2ccsc12
2. CN(C)c1ccc(CNCC2CCCO2)cc1 (configuration not stated)
3. O=C(NCc1ccccn1)C1Nc2ccc(C(F)(F)F)cc2C2C=CCC12 (configuration not stated)
4. O=C(C[C@H]1C/C=C\C[C@H](NC(=O)OCC2c3ccccc3-c3ccccc32)C(=O)OC[C@H](Cc2ccccc2)NC1=O)N[C@H](CO)Cc1ccccc1
5. O=C(NCc1ccco1)c1ccc(Oc2ccccc2)cc1
6. O=C(OCc1ccccc1Cl)c1cccnc1Cl

Return:
1. 6.38
2. -6.93
3. 24.7
4. 3.81
5. 1.55
6. -1.97

// for each molecule in input: emit inhibition
1. CCCN(CCC)CCOc1cc(C)ccc1C(C)C
2. COc1ccc(/C=C2\SC(=S)N(CC(=O)OCC(=O)Nc3ccc(C)cc3Cl)C2=O)cc1
3. CSc1ncccc1C(=O)Nc1cc(C)ccn1
4. Cc1ccc(C(C)C)c(OCC#CCN2CCOCC2)c1

Return:
[18.2, 1.09, 11.2, 30.8]
